All figures here come from patent US20200385406A1.

Test system: HIV-1 NL4-3
testName: HIV-1 infectivity assay in TZM-bl reporter cells
Format: cell-based
testSettings: Human immunodeficiency virus 1, NL43, TZM-bl, read-out: % Inhibition of HIV-1 Infectivity at 3 μM relative to ΔNef
Please enter satisfied where inhibition at 3 µM is greater than or equal to 60%, and not satisfied where it is lower.

molecule="O=C(Nc1ccc(Cl)cc1)c1cc(-n2sc3ncccc3c2=O)ccc1Cl [Compound 7]" class="not satisfied"
molecule="Cc1ccc2c(=O)n(-c3ccc(C)c(S(=O)(=O)N4CCCC4)c3)sc2n1 [Compound 4]" class="not satisfied"
molecule="O=C(c1ccc(-n2sc3ncccc3c2=O)cc1)N1CCCC1 [Compound 9]" class="not satisfied"
molecule="CC1CN(C(=O)c2cc(-n3sc4ncccc4c3=O)ccc2Cl)CC(C)O1 (centres unmarked) [Compound 13]" class=satisfied
molecule="O=C(c1cc(-n2sc3ncccc3c2=O)ccc1Cl)N1CCCCC1 [Compound 14]" class=satisfied
molecule="O=C(c1cc(-n2sc3ncccc3c2=O)ccc1Cl)N1CCOCC1 [Compound 5]" class=satisfied
molecule="Cc1ccc2c(=O)n(-c3ccc(Cl)c(C(=O)N4CCOCC4)c3)sc2n1 [Compound 3]" class="not satisfied"
molecule="O=C(c1cc(-n2sc3ncccc3c2=O)ccc1Cl)N1CCCC1 [Compound 12]" class=satisfied
molecule="O=C(c1cc(N2Cc3ncccc3C2=O)ccc1Cl)N1CCOCC1 [Compound 17]" class="not satisfied"
molecule="O=C(c1cc(-n2sc3nc(C(F)(F)F)ccc3c2=O)ccc1Cl)N1CCOCC1 [Compound 8]" class=satisfied

* * *

testedSystem: HIV-1 Nef-SF2 (Human immunodeficiency virus type 1 group M subtype B)
Construct: Full-length recombinant Nef proteins (HIV-1 Nef-SF2, HIV-1 Nef NL4-3 and SIV Nef-mac239) were expressed in E. coli; His-6 (N); made in house; host or cells: E. coli
testName: SPR binding to recombinant purified Nef protein
testSettings: HIV-1 Nef-SF2, KD, Reichert 4-Channel instrument, N/I = No Interaction up to 1 μM
Experimental: Interaction of inhibitor analogs with recombinant purified Nef proteins was performed using an SPR-based binding assay on a Reichert 4-channel SPR instrument. […] Kinetic rate constants were calculated from reference-corrected sensorgrams using the TraceDrawer software package (Reichert), and were best fit via 1:1 Langmuir or 2-step induced-fit binding models. […]
Each entry below carries its reported Kd.
readout: Kd (nM)

molecule=O=C(c1cc(-n2sc3ncccc3c2=O)ccc1Cl)N1CCC(F)(F)CC1 testedsystem="HIV-1 Nef-SF2 (Human immunodeficiency virus type 1 group M subtype B)" readout=Kd recordedresult=9390
molecule=O=C(c1cc(-n2sc3ncccc3c2=O)ccc1Cl)N1CCOCC1 testedsystem="HIV-1 Nef-SF2 (Human immunodeficiency virus type 1 group M subtype B)" readout=Kd recordedresult=2240
molecule=O=C(c1cc(-n2sc3ncccc3c2=O)ccc1Cl)N1CCCCC1 testedsystem="HIV-1 Nef-SF2 (Human immunodeficiency virus type 1 group M subtype B)" readout=Kd recordedresult=1400
molecule="CC1CN(C(=O)c2cc(-n3sc4ncccc4c3=O)ccc2Cl)CC(C)O1 (centres unmarked)" testedsystem="HIV-1 Nef-SF2 (Human immunodeficiency virus type 1 group M subtype B)" readout=Kd recordedresult=380
molecule=O=C(c1cc(-n2sc3nc(C(F)(F)F)ccc3c2=O)ccc1Cl)N1CCOCC1 testedsystem="HIV-1 Nef-SF2 (Human immunodeficiency virus type 1 group M subtype B)" readout=Kd recordedresult=2340
molecule=O=C(c1cc(-n2sc3ncccc3c2=O)ccc1Cl)N1CCCC1 testedsystem="HIV-1 Nef-SF2 (Human immunodeficiency virus type 1 group M subtype B)" readout=Kd recordedresult=1710
molecule=CC1(C)CN(C(=O)c2cc(-n3sc4ncccc4c3=O)ccc2Cl)CCO1 testedsystem="HIV-1 Nef-SF2 (Human immunodeficiency virus type 1 group M subtype B)" readout=Kd recordedresult=220
molecule=Cc1ccc(-n2sc3ncccc3c2=O)cc1S(=O)(=O)N1CCCC1 testedsystem="HIV-1 Nef-SF2 (Human immunodeficiency virus type 1 group M subtype B)" readout=Kd recordedresult=2400
